# TARGET ENTITY: ΔF508-CFTR (Homo sapiens, UniProt P13569, DEL508-508)
# Construct: host or cells: CFBE41o-, doxycycline-inducible
# Sequence (P13569 with tags, fused parts or gaps DEL508-508): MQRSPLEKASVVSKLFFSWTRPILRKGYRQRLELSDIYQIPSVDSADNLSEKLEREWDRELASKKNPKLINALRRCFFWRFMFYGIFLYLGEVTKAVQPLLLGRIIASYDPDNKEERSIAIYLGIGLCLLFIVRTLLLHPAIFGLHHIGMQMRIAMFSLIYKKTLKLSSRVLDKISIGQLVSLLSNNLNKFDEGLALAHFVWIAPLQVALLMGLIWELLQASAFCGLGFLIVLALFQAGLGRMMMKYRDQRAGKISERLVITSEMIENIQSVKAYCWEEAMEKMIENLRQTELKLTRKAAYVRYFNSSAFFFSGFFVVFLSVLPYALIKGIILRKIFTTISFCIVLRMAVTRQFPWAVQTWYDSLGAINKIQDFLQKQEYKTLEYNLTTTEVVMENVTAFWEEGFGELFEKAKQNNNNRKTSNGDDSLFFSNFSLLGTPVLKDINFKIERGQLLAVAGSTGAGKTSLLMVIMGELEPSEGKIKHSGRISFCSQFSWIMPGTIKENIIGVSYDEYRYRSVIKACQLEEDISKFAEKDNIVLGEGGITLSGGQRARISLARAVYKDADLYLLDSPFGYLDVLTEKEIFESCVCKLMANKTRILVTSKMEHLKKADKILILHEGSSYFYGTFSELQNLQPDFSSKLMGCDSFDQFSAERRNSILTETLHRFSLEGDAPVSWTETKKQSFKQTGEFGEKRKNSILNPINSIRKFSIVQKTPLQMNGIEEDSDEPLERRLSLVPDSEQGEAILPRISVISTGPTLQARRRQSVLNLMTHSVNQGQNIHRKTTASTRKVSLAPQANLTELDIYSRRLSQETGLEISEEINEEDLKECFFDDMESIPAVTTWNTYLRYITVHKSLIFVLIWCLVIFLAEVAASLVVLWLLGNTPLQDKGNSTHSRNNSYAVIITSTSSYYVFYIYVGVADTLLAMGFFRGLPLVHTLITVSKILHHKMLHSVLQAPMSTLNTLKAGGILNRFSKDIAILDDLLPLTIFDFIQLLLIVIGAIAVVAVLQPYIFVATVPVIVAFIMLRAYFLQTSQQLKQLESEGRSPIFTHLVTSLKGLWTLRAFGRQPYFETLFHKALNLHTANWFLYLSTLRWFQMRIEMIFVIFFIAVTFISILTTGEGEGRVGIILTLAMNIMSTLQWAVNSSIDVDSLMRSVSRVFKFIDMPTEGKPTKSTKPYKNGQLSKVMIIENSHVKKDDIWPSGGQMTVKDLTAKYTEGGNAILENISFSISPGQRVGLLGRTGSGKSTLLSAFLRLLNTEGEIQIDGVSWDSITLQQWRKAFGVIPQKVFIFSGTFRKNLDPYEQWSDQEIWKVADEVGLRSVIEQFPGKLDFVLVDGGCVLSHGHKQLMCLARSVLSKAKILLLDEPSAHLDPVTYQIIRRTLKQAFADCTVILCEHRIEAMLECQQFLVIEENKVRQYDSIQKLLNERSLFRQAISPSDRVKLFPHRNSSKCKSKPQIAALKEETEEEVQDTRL
# MEASUREMENT DESCRIPTION: CFTR cell surface levels using HRP-tagged ΔF508-CFTR expressing CFBE cells, in the presence of a co-corrector
# Format: cell-based
# REPORTED CONDITIONS: HRP-tagged ΔF508-CFTR expressing CFBE cells, in the presence of 3 μM co-corrector; read-out: EC50
pEC50: −log10 of the molar value.
Outcome: t for pEC50 of at least 6; f for anything lower.

Past entries and their recorded results:
O=C1CC[C@H](Oc2cc(C(=O)O)nc3c2c(C2CCC2)nn3-c2ccccc2)CN1 [compound 619] = f
CC(C)c1nn(C2CCCCC2)c2nc(C(=O)O)cc(-c3ccc(N4CCOCC4)cc3)c12 [compound 54] = t
N#CC1CCN(c2ccc(-c3cc(C(=O)O)nc4c3c(OC3COC3)nn4-c3ccccc3)cn2)CC1 [compound 592] = t
COC1CCN(c2cc(C(=O)O)nc3c2c(C(C)C)nn3-c2cccc(N(C)C)c2)CC1 [compound 330] = t
O=C(O)c1cc(N2CCC(F)(CO)CC2)c2c(C3CCC3)nn(-c3ccccc3)c2n1 [compound 517] = t

Query: Decide: is the reported value of pEC50 for CC(C)c1nn(-c2ccc(F)cc2)c2nc(C(=O)O)cc(N3CCC(C)(N4CCCCC4)CC3)c12 [compound 784] equal to or greater than 6?
Reply: f

Query: Now the compound CC1CN(c2cc(C(=O)O)nc3c2c(C2CCC2)nn3-c2ccccc2)C1 [compound 440]
Reply: f
